B1: TPR t1 (parent)
chain: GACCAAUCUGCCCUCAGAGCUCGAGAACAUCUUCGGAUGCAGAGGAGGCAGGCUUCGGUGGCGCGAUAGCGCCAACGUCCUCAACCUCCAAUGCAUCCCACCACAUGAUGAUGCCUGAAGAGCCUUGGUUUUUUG

- Variants of: B1
- EXPERIMENT: polymerase ribozyme fitness, log enrichment relative to wild type (log ratio); higher = more active; in vitro selection for triplet polymerase activity
Cut-off -4 on polymerase ribozyme fitness (log ratio), inclusive. At or above means yes; below means no.

{"VARIANT ID": "C40U C73U", "CLASS NAME": "yes"}
{"VARIANT ID": "C15A A43U C76G", "CLASS NAME": "yes"}
{"VARIANT ID": "C11G U55C C62G A83U A95U", "CLASS NAME": "yes"}
{"VARIANT ID": "A41C C73G C85A A118U", "CLASS NAME": "yes"}
{"VARIANT ID": "C49U C53A A111C", "CLASS NAME": "yes"}
{"VARIANT ID": "C64U C76A G120U", "CLASS NAME": "no"}
{"VARIANT ID": "C88A C94A G117C", "CLASS NAME": "no"}
{"VARIANT ID": "C11G C31A A41U C70G G113U", "CLASS NAME": "no"}
{"VARIANT ID": "C49U C73U U78C G110U", "CLASS NAME": "yes"}
{"VARIANT ID": "G63A G93A C97U U130A", "CLASS NAME": "yes"}
{"VARIANT ID": "A16U G23U G61A A84C C114A G117U", "CLASS NAME": "no"}
{"VARIANT ID": "A37U A41U C88U", "CLASS NAME": "yes"}
{"VARIANT ID": "A18G U78C", "CLASS NAME": "yes"}
{"VARIANT ID": "U32C C40U C124A", "CLASS NAME": "yes"}
{"VARIANT ID": "U9G A46U A91C G117A", "CLASS NAME": "yes"}
{"VARIANT ID": "C85U G113C C114A", "CLASS NAME": "no"}
{"VARIANT ID": "G17A G60U C79A", "CLASS NAME": "no"}
{"VARIANT ID": "C11A G48A A50U C70U C97G G122A", "CLASS NAME": "no"}
{"VARIANT ID": "U92A A118U", "CLASS NAME": "yes"}
{"VARIANT ID": "U54G C62G", "CLASS NAME": "no"}
{"VARIANT ID": "C34G U87A", "CLASS NAME": "no"}
{"VARIANT ID": "C31A G69U", "CLASS NAME": "yes"}
{"VARIANT ID": "C8U A103C", "CLASS NAME": "no"}
{"VARIANT ID": "C20A U32G G35C U59G G61A A74C", "CLASS NAME": "no"}
{"VARIANT ID": "U55C G58A G122A", "CLASS NAME": "yes"}
{"VARIANT ID": "C11G C12A C49U C85A A91C", "CLASS NAME": "yes"}
{"VARIANT ID": "U54G C80A C88A", "CLASS NAME": "no"}
{"VARIANT ID": "C76A G120U", "CLASS NAME": "yes"}
{"VARIANT ID": "U55G G58C C79A", "CLASS NAME": "yes"}
{"VARIANT ID": "C12U G25A G93C G120C", "CLASS NAME": "no"}
{"VARIANT ID": "C11G G42C A68U C72A A91U G113C", "CLASS NAME": "no"}
{"VARIANT ID": "A46U C49G C56U C76U U87A", "CLASS NAME": "yes"}
{"VARIANT ID": "U7G C73U U78A", "CLASS NAME": "yes"}
{"VARIANT ID": "A29G G58U U59A", "CLASS NAME": "yes"}
{"VARIANT ID": "A84G C86A U96C G113A", "CLASS NAME": "yes"}
{"VARIANT ID": "A29U A41C A119G C123G", "CLASS NAME": "yes"}
{"VARIANT ID": "G35U C70U C72U G120C", "CLASS NAME": "no"}
{"VARIANT ID": "G48C C49U U106G", "CLASS NAME": "yes"}
{"VARIANT ID": "C8A C15A G52C C80A", "CLASS NAME": "no"}
{"VARIANT ID": "G52A G57A G127C", "CLASS NAME": "yes"}
{"VARIANT ID": "C70U U109G", "CLASS NAME": "no"}
{"VARIANT ID": "G47A U125G", "CLASS NAME": "yes"}
{"VARIANT ID": "A29G C62A", "CLASS NAME": "yes"}
{"VARIANT ID": "C4U G44U C53U C86G", "CLASS NAME": "yes"}
{"VARIANT ID": "G17A U116C G120U", "CLASS NAME": "no"}
{"VARIANT ID": "U21C G35C C73G A83C", "CLASS NAME": "no"}
